The reported numbers originate from the supplement of paper PMC10065799.

phosphorylation enrichment listing for selected sequences.
molecular target: EPHB1 (UniProt P54762); test: phosphorylation enrichment, bacterial display (enrichment ratio); higher = better substrate or ligand; peptides without Tyr show the background;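 note: 11-residue human phosphosite peptides and single-mutation variants displayed on the E. coli surface, counted by deep sequencing, each peptide's frequency after selection divided by its frequency in the unselected input library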;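 note: frequency after pTyr selection over input frequency; kinase dosed for 20-30% of maximal phosphorylation in three min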
Sequence (P54762 whole entry, looked up): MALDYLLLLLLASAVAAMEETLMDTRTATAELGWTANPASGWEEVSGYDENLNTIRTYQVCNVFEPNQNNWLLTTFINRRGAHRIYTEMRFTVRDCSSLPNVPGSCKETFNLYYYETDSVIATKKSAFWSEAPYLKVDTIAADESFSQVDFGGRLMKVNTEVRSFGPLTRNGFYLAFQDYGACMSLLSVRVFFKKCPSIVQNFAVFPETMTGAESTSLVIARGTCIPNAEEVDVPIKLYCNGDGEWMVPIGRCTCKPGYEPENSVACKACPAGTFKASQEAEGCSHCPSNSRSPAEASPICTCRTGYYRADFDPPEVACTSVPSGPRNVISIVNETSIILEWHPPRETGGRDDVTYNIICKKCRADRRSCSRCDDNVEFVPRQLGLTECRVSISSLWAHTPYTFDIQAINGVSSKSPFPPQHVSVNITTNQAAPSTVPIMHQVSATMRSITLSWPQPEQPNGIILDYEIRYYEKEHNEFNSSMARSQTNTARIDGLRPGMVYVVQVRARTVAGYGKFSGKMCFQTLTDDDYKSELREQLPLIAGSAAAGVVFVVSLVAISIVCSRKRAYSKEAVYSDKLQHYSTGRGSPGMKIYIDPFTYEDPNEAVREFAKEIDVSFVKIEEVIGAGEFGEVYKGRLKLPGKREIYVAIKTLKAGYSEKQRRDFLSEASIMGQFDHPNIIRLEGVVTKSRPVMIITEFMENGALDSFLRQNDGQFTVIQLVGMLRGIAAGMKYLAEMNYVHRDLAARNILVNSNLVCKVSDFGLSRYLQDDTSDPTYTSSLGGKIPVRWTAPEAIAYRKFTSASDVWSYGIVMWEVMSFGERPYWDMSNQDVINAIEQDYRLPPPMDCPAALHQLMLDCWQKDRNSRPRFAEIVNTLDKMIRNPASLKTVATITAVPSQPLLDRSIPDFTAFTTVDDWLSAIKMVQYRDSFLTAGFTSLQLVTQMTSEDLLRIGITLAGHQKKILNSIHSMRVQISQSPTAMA
// no unit, no text: just the number

Sequence string: IGDENYGEGSS [ACO2_Y665]
phosphorylation enrichment: 0.511
--
Sequence string: SDGGCYEQLFV [MC4R_Y41]
phosphorylation enrichment: 0.764
--
Sequence string: RAIGYYSATSK [FAM120A_Y328]
phosphorylation enrichment: 0.622

### Prompt I am curious: what phosphorylation enrichment value has been reported for DAVKHYMQFQK [CNGA2_Y395_R399Q] ?
### Response 0.451

### Prompt I am curious: what phosphorylation enrichment value has been reported for LPKDLYLISQM [LARP4_Y141_S137P] ?
### Response 0.784

### Prompt I am curious: what phosphorylation enrichment value has been reported for IEPVIYVVQRR [ANOS1_Y217] ?
### Response 0.209

### Prompt I am curious: what phosphorylation enrichment value has been reported for DYYDLYGGKKF [PTPN11_Y66_E69K] ?
### Response 1.89

###

biological target: Fes (UniProt P07332); assay: phosphorylation enrichment, bacterial display (enrichment ratio); higher = better substrate or ligand; peptides without Tyr show the background
Sequence (P07332 whole entry, looked up): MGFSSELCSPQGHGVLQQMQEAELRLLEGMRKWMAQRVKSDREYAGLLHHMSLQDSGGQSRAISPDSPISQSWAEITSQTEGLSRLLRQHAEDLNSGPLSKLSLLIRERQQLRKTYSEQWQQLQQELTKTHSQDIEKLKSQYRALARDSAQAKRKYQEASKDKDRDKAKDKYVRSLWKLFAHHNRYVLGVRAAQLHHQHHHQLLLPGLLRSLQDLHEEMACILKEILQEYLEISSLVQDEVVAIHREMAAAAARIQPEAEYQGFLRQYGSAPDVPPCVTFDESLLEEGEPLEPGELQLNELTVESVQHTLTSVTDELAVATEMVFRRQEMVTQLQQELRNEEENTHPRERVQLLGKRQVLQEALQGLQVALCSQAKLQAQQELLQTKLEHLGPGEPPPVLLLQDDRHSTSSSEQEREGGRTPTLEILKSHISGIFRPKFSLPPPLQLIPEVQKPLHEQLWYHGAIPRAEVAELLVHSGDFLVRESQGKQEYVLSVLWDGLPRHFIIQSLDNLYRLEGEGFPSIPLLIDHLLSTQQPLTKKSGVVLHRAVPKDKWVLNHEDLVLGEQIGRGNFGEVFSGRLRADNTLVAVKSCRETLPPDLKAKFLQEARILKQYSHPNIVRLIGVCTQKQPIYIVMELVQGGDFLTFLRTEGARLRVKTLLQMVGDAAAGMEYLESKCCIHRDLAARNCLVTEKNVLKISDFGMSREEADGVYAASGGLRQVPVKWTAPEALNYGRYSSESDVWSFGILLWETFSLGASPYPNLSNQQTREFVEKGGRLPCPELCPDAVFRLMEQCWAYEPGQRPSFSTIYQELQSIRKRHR
Please note: met applies when phosphorylation enrichment is 1 or greater, and not met applies otherwise.

Field: example entries. Status: answers known.
Sequence string: LARDMYDKEFF [MET_Y1230_YF]
Group: not met
--
Sequence string: PEADKYRLTYA [FGG_Y300]
Group: met
--
Sequence string: RIFDFYSARKT [STOX1_Y858_A863T_YF]
Group: not met
--
Sequence string: DSYWSYCNAVA [SLC20A2_Y436_S434W]
Group: met
--
Sequence string: KALSLYTKLMN [STAM_Y371_E366K]
Group: met
--
Sequence string: LLVVLCKFRCF [PSEN1_Y154_Y154C_YF]
Group: met

### Prompt // inclusive: phosphorylation enrichment at least 1? input: FKDFFYCWNTF [AICDA_Y146_YF]
### Response met

### Prompt // inclusive: phosphorylation enrichment at least 1? input: RAQIRYAQEHD [NSD1_Y1987_R1984Q]
### Response not met

### Prompt // inclusive: phosphorylation enrichment at least 1? input: EEQKKNFNAMK [SCN5A_Y1494_Y1494N_YF]
### Response not met

### Prompt // inclusive: phosphorylation enrichment at least 1? input: HFGCIYHGTLL [MET_Y1093_V1092I]
### Response met

### Prompt // inclusive: phosphorylation enrichment at least 1? input: RTLSEYARRHV [RERE_Y1259_P1262R]
### Response not met

### Prompt // inclusive: phosphorylation enrichment at least 1? input: AELVPYFMEHH [PTPN11_Y80_Q79P_YF]
### Response met

### Prompt // inclusive: phosphorylation enrichment at least 1? input: VRTGIYHGGEP [PIK3CA_Y361]
### Response not met

### Prompt // inclusive: phosphorylation enrichment at least 1? input: SRPHLYGTPSR [ADGRE2_Y670]
### Response not met

### Prompt // inclusive: phosphorylation enrichment at least 1? input: ENPLDYGSAWA [AR_Y395]
### Response met

### Prompt // inclusive: phosphorylation enrichment at least 1? input: LPSKDYAEVGR [HP_Y272]
### Response met
